# testDetails: method code SF, from DOI: 10.1111/j.2042-7158.1971.tb08772.x, PMID: 4401532
# testContext: pH 7.2
Recorded logD values for a group of compounds are listed next.

As a guide, the following entries are already answered.
Which logD is listed for CC(=O)Nc1ccc(Cl)cc1 ?
1.87

Which logD is listed for COc1ccc(N(C)C(C)=O)cc1 ?
0.72

# context switch: different compound, same logD
Which logD is listed for CC(=O)N(C)c1ccc(O)cc1 ?
0.61

* * *

readoutKind: logP

Which logP is listed for COc1ccc(Cc2cnc(N)nc2N)cc1Cl ?
1.65

* * *

Recorded logP values for a group of compounds are listed next.
// no unit string in output, number only

Which logP is listed for O=C(O)c1ccccc1Br ?
2.19

# context switch: different compound, same logP
Which logP is listed for O=C(O)c1cccc(O)c1 ?
1.39
